Attribution: patent US10703746B2

- testedSystem: IDH1 R132C (Homo sapiens, UniProt O75874, R132C)
- Sequence (O75874 whole entry R132C): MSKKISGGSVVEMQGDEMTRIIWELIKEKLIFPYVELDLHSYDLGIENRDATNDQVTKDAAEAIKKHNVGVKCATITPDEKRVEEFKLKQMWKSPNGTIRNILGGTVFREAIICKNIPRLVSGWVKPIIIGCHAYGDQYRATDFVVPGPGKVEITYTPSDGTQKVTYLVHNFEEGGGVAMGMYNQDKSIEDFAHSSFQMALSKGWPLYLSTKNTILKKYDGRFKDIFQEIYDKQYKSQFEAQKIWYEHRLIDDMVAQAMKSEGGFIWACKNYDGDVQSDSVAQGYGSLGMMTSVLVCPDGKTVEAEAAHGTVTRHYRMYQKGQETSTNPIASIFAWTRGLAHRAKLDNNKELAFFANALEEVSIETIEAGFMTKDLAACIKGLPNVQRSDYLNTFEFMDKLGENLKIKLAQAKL
- assayName: IDH1 R132C enzymatic assay (NADPH depletion coupled to diaphorase/resazurin)
- Format: biochemical
- experimentalContext: IDH1 R132C enzymatic inhibition, IC50 class
- Description: Assays were conducted in a 1536-well black solid-bottom plate with a final assay volume of 9 μL. For IDH1 R132C, 3 μL of enzyme (0.00032 mg/mL IDH1 […], 10% glycerol, 50 mM potassium phosphate pH 6.5, 5 mM MgCl2, 0.03% BSA) were added to the plate, followed by the addition of 23 nL of test compound in DMSO. […]
Here the recorded IC50 is given for each entry.
endpointLabel: IC50

compound: CCc1cccc(CC)c1-n1c(CC(C)C)c(C(=O)N2CCNCC2)cc(-c2coc(-c3ccc(Cl)cc3)n2)c1=O
result: 300 to 1000 nM
//
compound: CCc1cccc(CC)c1-n1c(CC(C)C)c(C(=O)N2C[C@@H](C)N[C@@H](C)C2)cc(-c2nc(-c3ccc(Cl)cc3)cs2)c1=O
result: < 300 nM
//
compound: CC(C)=Cc1c(C(=O)N2CCNCC2)cc(-c2nc(-c3ccc(Cl)cc3)cs2)c(=O)n1-c1cc(Cl)ccc1Cl
result: < 300 nM
//
compound: CCc1cccc(CC)c1-n1c(C)c(C(=O)NC2CCNC2)cc(-c2nc(-c3ccc(Cl)cc3)cs2)c1=O (stereo not shown)
result: 300 to 1000 nM

====

- testedSystem: IDH1 R132H (Homo sapiens, UniProt O75874, R132H)
- Sequence (O75874 whole entry R132H): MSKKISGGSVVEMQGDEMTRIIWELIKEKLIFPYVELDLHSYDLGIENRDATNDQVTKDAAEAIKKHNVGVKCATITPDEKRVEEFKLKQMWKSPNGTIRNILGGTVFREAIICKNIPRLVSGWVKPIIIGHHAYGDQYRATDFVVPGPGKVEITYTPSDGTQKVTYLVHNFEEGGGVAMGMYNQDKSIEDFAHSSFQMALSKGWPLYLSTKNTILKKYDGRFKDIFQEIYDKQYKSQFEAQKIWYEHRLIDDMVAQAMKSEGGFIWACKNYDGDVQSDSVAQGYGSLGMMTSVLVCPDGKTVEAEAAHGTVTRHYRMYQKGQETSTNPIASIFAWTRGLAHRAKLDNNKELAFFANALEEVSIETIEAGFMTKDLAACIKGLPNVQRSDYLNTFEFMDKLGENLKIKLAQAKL
- assayName: IDH1 R132H enzymatic assay (NADPH depletion coupled to diaphorase/resazurin)
- Assay type: biochemical
- experimentalContext: enzymatic inhibition, IDH1 R132H
pIC50: −log10 of the molar value.

chemicalSmiles: CCOc1ncc(C)cc1-n1c(C=C(C)C)c(C(=O)N2CCNCC2)cc(-c2nc(-c3ccc(Cl)cc3)cs2)c1=O
pIC50: > 6.52
--
chemicalSmiles: CCc1cccc(CC)c1-n1c(C=C(C)C)c(C(=O)N2C[C@H]3C[C@@H]2CN3)cc(-c2nc(-c3ccc(Cl)cc3)cs2)c1=O
pIC50: > 6.52
--
chemicalSmiles: CCc1cccc(CC)c1-n1c(C=C(C)C)c(C(=O)N2CCNC[C@H]2C)cc(-c2nc(-c3ccc(C(F)(F)F)cc3)cs2)c1=O
pIC50: > 6.52
--
chemicalSmiles: CCc1ccc(Cl)c(CC)c1-n1c2c(cc(-c3nc(-c4ccc(Cl)cc4)cs3)c1=O)C(=O)CC(C)(C)C2
pIC50: > 6.52
--
chemicalSmiles: CCc1cccc(CC)c1-n1c(-c2cccn2C)c(C(=O)N2CCNCC2)cc(-c2nc(-c3ccc(Cl)cc3)cs2)c1=O
pIC50: > 6.52
--
chemicalSmiles: CCc1cccc(CC)c1-n1c(C=C(C)C)c(C(=O)N2CCN(c3ccccc3C(F)(F)F)CC2)cc(-c2nc(-c3ccc(Cl)cc3)cs2)c1=O
pIC50: 4.70 to 5.30
--
chemicalSmiles: Cc1[nH]c(=O)c(-c2nc(-c3ccc(Cl)cc3)cs2)cc1C(=O)N1CCNCC1
pIC50: < 4.70
--
chemicalSmiles: CCOc1ccc(-n2ccc(-c3cc(C(=O)N4CCNCC4)c(C=C(C)C)n(-c4c(CC)cccc4CC)c3=O)n2)cc1
pIC50: > 6.52
--
chemicalSmiles: CCc1cccc(CC)c1-n1c(CC(C)C)c(C(=O)N2CCNCC2)cc(-c2nc(-c3ccc(Cl)cc3)c(Br)s2)c1=O
pIC50: 6.00 to 6.52

====

- testedSystem: IDH1 R132H (Homo sapiens, UniProt O75874, R132H)
- assayName: IDH1 R132H enzymatic assay (NADPH depletion coupled to diaphorase/resazurin)
- Format: biochemical
- experimentalContext: IDH1 R132H enzymatic inhibition, IC50 class
pIC50: −log10 of the molar value.
Here the recorded pIC50 is given for each entry.

compound: COc1ccc(C(=O)O)cc1-n1c2c(cc(-c3nc(-c4ccc(Cl)cc4)cs3)c1=O)C(=O)CC(C)(C)C2 [Compound 27]
pIC50: 4.70 to 5.30
--
compound: CCc1cccc(CC)c1-n1c(CC(C)C)c(C(=O)N2CCNC(C)C2)cc(-c2nc(-c3ccc(Cl)cc3)cs2)c1=O (stereo not drawn) [Compound 305]
pIC50: 6.00 to 6.52
--
compound: CCc1cccc(CC)c1-n1c2c(cc(-c3nc(-c4ccc(C)cn4)c(C)s3)c1=O)C(=O)CC(C)(C)C2 [Compound 292]
pIC50: 5.30 to 6.00
--
compound: Cc1ccc(CO)cc1-n1c2c(cc(-c3nc(-c4ccc(Cl)cc4)cs3)c1=O)C(=O)CCC2 [Compound 651]
pIC50: 5.30 to 6.00
--
compound: CCc1cccc(CC)c1-n1c2c(cc(-c3nc(-c4cccc(F)c4)cs3)c1=O)C(=O)CC(C)(C)C2 [Compound 209]
pIC50: 5.30 to 6.00
--
compound: COc1ccc(-n2c3c(cc(-c4nc(-c5ccc(Cl)cc5)cs4)c2=O)C(=O)CC(C)(C)C3)c(Cl)c1 [Compound 663]
pIC50: < 4.70
--
compound: CCc1cccc(CC)c1-n1c(CC(C)C)c(C(=O)N2CCCC(CO)C2)cc(-c2nc(-c3ccc(Cl)cc3)cs2)c1=O (stereo not drawn) [Compound 34]
pIC50: 5.30 to 6.00
--
compound: CCc1cccc(CC)c1-n1c(C)c(C(=O)N2CCC(C(=O)O)CC2)cc(-c2nc(-c3ccc(Cl)cc3)cs2)c1=O [Compound 109]
pIC50: 5.30 to 6.00
--
compound: CCOc1ccc(OCC)c(-n2c3c(cc(-c4nc(-c5ccc(Cl)cc5)cs4)c2=O)C(=O)CC(C)(C)C3)c1 [Compound 828]
pIC50: 6.00 to 6.52
--
compound: CCc1cccc(CC)c1-n1c(C=C(C)C)c(C(=O)N2CCNCC2C(C)C)cc(-c2nc(-c3ccc(Cl)cc3)cs2)c1=O (stereo not drawn) [Compound 332]
pIC50: 6.00 to 6.52
--
compound: CCc1cccc(CC)c1-n1c(C2CCNCC2)c(C(=O)N2CCNCC2)cc(-c2nc(-c3ccc(Cl)cc3)cs2)c1=O [Compound 670]
pIC50: 4.70 to 5.30
--
compound: Cc1cccc(C)c1-n1c2c(cc(-c3nc(-c4ccc(Cl)cc4)cs3)c1=O)C(=O)CC(C)(C)C2 [Compound 215]
pIC50: 5.30 to 6.00
--
compound: CCc1cccc(CC)c1-n1c(CC(C)C)c(C(=O)N2CCNCC2)cc(-c2nc(-c3ccc(Cl)cc3)c(C)s2)c1=O [Compound 82]
pIC50: > 6.52
--
compound: CC1(C)CC(=O)c2cc(-c3nc(-c4ccc(Cl)cc4)cs3)c(=O)n(-c3ccccc3C3CC3)c2C1 [Compound 50]
pIC50: 6.00 to 6.52
--
compound: CCc1cccc(CC)c1-n1c(CC(C)C)c(C(=O)N2CCNCC2)cc(-c2nc(-c3ccc(OC)nc3)c(C)s2)c1=O [Compound 322]
pIC50: 6.00 to 6.52
--
compound: COc1ccc(-n2cccc(-c3nc(-c4ccc(Cl)cc4)cs3)c2=O)c(OC)c1 [Compound 165]
pIC50: < 4.70
--
compound: CCc1cccc(CC)c1-n1c(C)c(C(=O)N2CCNC(C(=O)O)C2)cc(-c2nc(-c3ccc(Cl)cc3)cs2)c1=O (stereo not drawn) [Compound 198]
pIC50: 6.00 to 6.52
--
compound: CCc1cccc(CC)c1-n1c(C(C)C)c(C(=O)O)cc(-c2nc(-c3ccc(Cl)cc3)cs2)c1=O [Compound 98]
pIC50: 5.30 to 6.00
--
compound: CCc1cccc(CC)c1-n1c(C)c(C(=O)N[C@@H]2CCCC[C@@H]2N)cc(-c2nc(-c3ccc(Cl)cc3)cs2)c1=O [Compound 214]
pIC50: 4.70 to 5.30
--
compound: CCc1cccc(CC)c1-n1c(C=C(C)C)c(C(=O)N2CCCNC(=O)C2)cc(-c2ccn(-c3ccc(Cl)cc3)n2)c1=O [Compound 635]
pIC50: > 6.52
--
compound: CCc1cccc(CC)c1-n1c(CC(C)C)c(C(=O)N2CCNCC2)cc(-c2cccc(-c3ccc(Cl)cc3)n2)c1=O [Compound 310]
pIC50: 5.30 to 6.00
--
compound: CCc1cccc(CC)c1-n1c(CC(C)C)c(C(=O)N2CCC(CO)CC2)cc(-c2nc(-c3ccc(Cl)cc3)cs2)c1=O [Compound 94]
pIC50: 5.30 to 6.00
--
compound: CCc1cccc(CC)c1-n1c2c(cc(C(=O)N(C)Cc3ccc(Cl)cc3)c1=O)C(=O)CC(C)(C)C2 [Compound 309]
pIC50: 4.70 to 5.30
--
compound: COc1ccc(OC)c(-n2c3c(cc(-n4ccc(-c5ccccc5)n4)c2=O)C(=O)CC(C)(C)C3)c1 [Compound 191]
pIC50: 5.30 to 6.00
--
compound: CCc1cccc(CC)c1-n1c(C)c(C(=O)NC2CCNCC2)cc(-c2nc(-c3ccc(Cl)cc3)cs2)c1=O [Compound 302]
pIC50: 6.00 to 6.52
--
compound: CCc1cccc(CC)c1-n1c(CC(C)C)c(C(=O)N2CCN[C@@H](C)C2)cc(-c2nc(-c3ccc(Cl)cc3)cs2)c1=O [Compound 141]
pIC50: 6.00 to 6.52
--
compound: COc1ccc(OC)c(-n2c3c(cc(-c4nc5ccc(Cl)cc5s4)c2=O)C(=O)CC(C)(C)C3)c1 [Compound 149]
pIC50: < 4.70
